- Test system: PIP5K1A
- test-parameters: concentration: 1 μM, replicates: in singlicate; n = 1;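 note: KINOMEscan kinase panel screen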
observation-type: %Inh (%)
Quick note: give the figure in %, leave out the unit.

Solved entries (count: 3):
Cc1nn2c(=O)cc(N3CCO[C@H](C)C3)nc2n1Cc1cccc(Cl)c1Cl; 0
CS(=O)(=O)c1cccc(CNc2nc(Nc3ccc4c(c3)CCC(=O)N4)ncc2C(F)(F)F)c1; 61
Nc1ncc(-c2ccc3nccc(-c4ccncc4)c3c2)cc1S(=O)(=O)N1CCCCC1; 0

Next molecule, %Inh to be filled in.
(Q) Could you share which %Inh value was measured for `Fc1cc(Cl)ccc1Nc1ccnc2cc(-c3ccc(CN4CCSCC4)o3)ccc12` ?
(A) 30

====

- Tested on: MAP4K4
- test-parameters: concentration: 1 μM, replicates: in singlicate; n = 1
observation-type: %Inh

(Q) Could you share which %Inh value was measured for `Cl.O=C(Nc1ccc(Oc2ccc3[nH]c(NC(=O)c4ccco4)nc3c2)cc1)Nc1cc(C(F)(F)F)ccc1F` ?
(A) 24%

====

- System: WEE2
- test-parameters: concentration: 1 μM, replicates: in singlicate; n = 1
observation-type: %Inh (%)
Quick note: give the figure in %, leave out the unit.

Solved entries (count: 3):
O=C(O)C(F)(F)F.O=c1[nH]ccc2nc(N[C@@H]3CCNC3)nc(Nc3cc(Cl)cc(Cl)c3)c12; 0
N#CC1(c2cccc(C(=O)Nc3cccc(Oc4ccc5nc(NC(=O)C6CC6)sc5n4)c3)c2)CC1; 5
Cc1cccc(Nc2nc(NCCN)ncc2C(N)=O)c1; 26

(Q) Could you share which %Inh value was measured for `O=C1NC(=O)C(c2ccccc2Cl)=C1Nc1cccc(Cl)c1` ?
(A) 6

(Q) Could you share which %Inh value was measured for `CCNc1nccc(-c2c(-c3ccc(F)cc3)ncn2C2CCN(C)CC2)n1` ?
(A) 0

(Q) Could you share which %Inh value was measured for `Cc1ccc(Nc2ccnc(Nc3ccc(C)c(F)c3)n2)cc1O.Cl` ?
(A) 17

(Q) Could you share which %Inh value was measured for `Cc1cc(-c2ccnc(Nc3cccc(C#N)c3)n2)cc(C)c1O` ?
(A) 2

(Q) Could you share which %Inh value was measured for `COc1cccc(-c2nc(-c3ccccc3)[nH]c2-c2ccncc2)c1` ?
(A) 0

(Q) Could you share which %Inh value was measured for `N#Cc1cnc2cc(-c3cnc(CNCCN4CCOCC4)s3)ccc2c1Nc1ccc(Oc2ccccc2)cc1` ?
(A) 23

(Q) Could you share which %Inh value was measured for `COc1cccc(C2=C(Nc3cccc(O)c3)C(=O)NC2=O)c1` ?
(A) 12

====

Here, each record is paired with measured %Inh data.
- Test system: IGF1R
- test-parameters: concentration: 1 μM, replicates: in singlicate; n = 1
// unit must come after the numeric part

CC(=O)Nc1cn2nc(Oc3cccc(NC(=O)c4cccc(C(F)(F)F)c4)c3)ccc2n1; 8%

(Q) Could you share which %Inh value was measured for COc1ccc(C)c(Nc2ccnc(Nc3ccc(-c4cnc[nH]4)cc3)n2)c1.Cl [GW784041] ?
(A) 12%

(Q) Could you share which %Inh value was measured for CCOc1nccc(-c2c(-c3ccc(F)cc3)ncn2C2CCNCC2)n1 [SB-249175] ?
(A) 0%

(Q) Could you share which %Inh value was measured for COc1cccc(C2=C(Nc3cccc(O)c3)C(=O)NC2=O)c1 [SB-390771] ?
(A) 19%

(Q) Could you share which %Inh value was measured for CN(C)CCOc1ccc(-c2cc(-c3ccc(Cl)c(O)c3)c(-c3ccncc3)[nH]2)cc1.Cl.Cl [SB-684387] ?
(A) 0%

(Q) Could you share which %Inh value was measured for `CCNc1nccc(-c2c(-c3ccc(F)cc3)ncn2C2CCN(C)CC2)n1` ?
(A) 0%

(Q) Could you share which %Inh value was measured for Cc1ccc(O)cc1Nc1ccnc2ccc(C(C)(C)C)cc12 [GW856805] ?
(A) 0%

(Q) Could you share which %Inh value was measured for COc1cccc2c(-c3ccncc3)c(-c3ccc(F)cc3)nn12 [GW468513] ?
(A) 9%

====

- Test system: CDK4-cyclinD3
- test-parameters: concentration: 1 μM, replicates: in singlicate; n = 1
observation-type: %Inh (%)
Quick note: give the figure in %, leave out the unit.

Solved entries (count: 6):
Cl.O=C(Nc1ccc(Oc2ccc3[nH]c(NC(=O)c4ccco4)nc3c2)cc1)Nc1cc(C(F)(F)F)ccc1F; 0
CN1CCN(Cc2ccc(NC(=O)Nc3ccc(N(C)c4ccnc(Nc5ccc(CS(C)(=O)=O)cc5)n4)cc3)cc2)CC1.Cl; 97.8
Cc1cccc(Nc2nc(N[C@H]3CCCC[C@H]3N)ncc2C(N)=O)c1.Cl; 1
Fc1cc(Cl)ccc1Nc1ccnc2cc(-c3ccc(CN4CCOCC4)o3)ccc12; 0
O=C(Nc1n[nH]c2nc(-c3cccc(O)c3)ccc12)C1CC1; 25
CN(c1ccc(NC(=O)Nc2cccc(Cl)c2)cc1)c1ccnc(N)n1.Cl; 0

(Q) Provide value of %Inh for this record tested with CDK4-cyclinD3: `CC(C)(C)c1ccc(C(=O)Nc2cn3cc(-n4ccnc4)ccc3n2)cc1`
(A) 0

(Q) Provide value of %Inh for this record tested with CDK4-cyclinD3: `Cc1ccc(NC(=O)c2ccc(Cl)c(Cl)c2)cc1-c1ccc(C(=O)Nc2ccncc2)cc1`
(A) 0

====

Here, each record is paired with measured %Inh data.
- System: HIPK2
- test-parameters: concentration: 1 μM, replicates: in singlicate; n = 1
Quick note: give the figure in %, leave out the unit.

COc1cccc(NC(=O)NCCNc2ccnc(Nc3ccc(F)cc3)n2)c1; 0
COC(=O)Nc1nc2cc(Oc3ccc(NC(=O)Nc4cccc(SC)c4)cc3)ccc2[nH]1.Cl; 0
Cc1ccccc1CC(=O)N1CCc2cc(-c3cn(C)c4ncnc(N)c34)ccc21; 0
CS(=O)(=O)c1cccc(CNc2nc(Nc3ccc4c(c3)CCC(=O)N4)ncc2C(F)(F)F)c1; 3
COC(=O)Nc1nc2ccc(Oc3ccc(NC(=O)Nc4cc(C(F)(F)F)ccc4F)cc3)cc2[nH]1.Cl; 0

(Q) Provide value of %Inh for this record tested with HIPK2: `CCNc1nccc(-c2c(-c3ccc(F)cc3)ncn2C2CCN(C)CC2)n1`
(A) 70

(Q) Provide value of %Inh for this record tested with HIPK2: `N#CC1(c2cccc(C(=O)Nc3cccc(Oc4ccc5nc(NC(=O)C6CC6)sc5n4)c3)c2)CC1`
(A) 0

(Q) Provide value of %Inh for this record tested with HIPK2: `Nc1ncnc2scc(-c3ccc(NC(=O)Cc4cc(F)ccc4F)cc3)c12.O=C(O)C(F)(F)F`
(A) 23

(Q) Provide value of %Inh for this record tested with HIPK2: `CN(c1ccc(NC(=O)Nc2cccc(Cl)c2)cc1)c1ccnc(N)n1.Cl`
(A) 18

====

- Tested on: TXK
- test-parameters: concentration: 1 μM, replicates: in singlicate; n = 1
observation-type: %Inh (%)
Quick note: give the figure in %, leave out the unit.

Solved entries (count: 4):
Cc1cccc(Nc2nc(NCCN)ncc2C(N)=O)c1; 11
Cc1ccc(O)cc1Nc1ccnc2ccc(C(C)(C)C)cc12; 98.9
N#Cc1cnc2cc(-c3cnc(CNCCN4CCOCC4)s3)ccc2c1Nc1ccc(Oc2ccccc2)cc1; 71
COC(=O)Nc1nc2cc(Oc3ccc(NC(=O)Nc4cccc(SC)c4)cc3)ccc2[nH]1.Cl; 0

Next compound, %Inh to be filled in.
(Q) Provide value of %Inh for this record tested with TXK: `O=C(Nc1c(F)cccc1F)c1cc(C(=O)c2ccccc2F)c[nH]1`
(A) 0

====

- Tested on: RSK1(Kin.Dom.2-C-terminal)
- Construct: gene RPS6KA1
- test-parameters: concentration: 1 μM, replicates: in singlicate; n = 1
observation-type: %Inh (%)
Quick note: give the figure in %, leave out the unit.

(Q) Could you share which %Inh value was measured for Nc1cccc(-c2ccc3c(N)n[nH]c3c2)c1 [GSK2193613] ?
(A) 1

(Q) Could you share which %Inh value was measured for COC(=O)Nc1nc2cc(Oc3ccc(NC(=O)Nc4cccc(SC)c4)cc3)ccc2[nH]1.Cl [GW697999] ?
(A) 0

(Q) Could you share which %Inh value was measured for Cn1cc(-c2ccc3c(c2)CCN3C(=O)Cc2cc(F)cc(F)c2F)c2c(N)ncnc21 [GSK2634140] ?
(A) 0

====

- Test system: IRAK1
- test-parameters: concentration: 1 μM, replicates: in singlicate; n = 1
Quick rule: %Inh of at least 20% means criterion met, below that means criterion not met.

Previously resolved entries follow.
COc1cccc2c(-c3ccncc3)c(-c3ccc(F)cc3)nn12; criterion met
Fc1cc(Cl)ccc1Nc1ccnc2cc(-c3ccc(CN4CCOCC4)o3)ccc12; criterion met

(Q) Check the entry `O=C(Nc1n[nH]c2nc(-c3ccccc3O)ccc12)C1CC1` : does %Inh equal or exceed 20%?
(A) criterion not met

(Q) Check the entry `Nc1ncc(-c2cn[nH]c2)c2scc(-c3ccc4c(c3)CCN4C(=O)Cc3ccccc3)c12` : does %Inh equal or exceed 20%?
(A) criterion not met

(Q) Check the entry `COc1cccc(NC(=O)NCCNc2ccnc(Nc3ccc(F)cc3)n2)c1` : does %Inh equal or exceed 20%?
(A) criterion met

(Q) Check the entry CC(C)NCC(Cc1ccccc1)NC(=O)c1cc(Br)c(-c2ccnc3[nH]ccc23)s1.Cl.Cl (stereo not drawn) : does %Inh equal or exceed 20%?
(A) criterion not met
